- Tested on: COLO-320-HSR;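 note: growth inhibition of COLO-320-HSR cells, determined with a cell viability assay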
- assay-details: cells
- Type: functional, cell-based, Homo sapiens
- condition-context: Homo sapiens, COLO-320-HSR
- Description: SANGER: Inhibition of human COLO-320-HSR cell growth in a cell viability assay.
pIC50: −log10 of the molar value.
measured-property: pIC50

>>> experimental_result("COc1cc2ncn(-c3cc(OCc4ccccc4C(F)(F)F)c(C(N)=O)s3)c2cc1OC [GW843682X]")
7.55
>>> experimental_result("Cc1cc([N+](=O)[O-])ccc1NS(=O)(=O)c1cc(Cl)ccc1Cl")
4.75

###

- Tested on: SNU-C1;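 note: growth inhibition of SNU-C1 human cells, read out by a cell viability assay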
- assay-details: cells
- Assay type: functional, cell-based, Homo sapiens
- condition-context: Homo sapiens, SNU-C1
- Description: SANGER: Inhibition of human SNU-C1 cell growth in a cell viability assay.
measured-property: IC50

>>> experimental_result("COc1cc2ncn(-c3cc(OCc4ccccc4S(C)(=O)=O)c(C#N)s3)c2cc1OC [GSK-319347A]")
"> 5 µM"
>>> experimental_result("C#Cc1cccc(Nc2ncnc3cc(OCCOC)c(OCCOC)cc23)c1")
"> 2 µM"
>>> experimental_result("CCC/C=C/C=C/C(=O)O[C@H]1/C(=C/C(=O)OC)C[C@H]2C[C@H]([C@@H](C)O)OC(=O)C[C@H](O)C[C@@H]3C[C@H](OC(C)=O)C(C)(C)[C@](O)(C[C@@H]4C/C(=C/C(=O)OC)C[C@H](/C=C/C(C)(C)[C@]1(O)O2)O4)O3")
"> 0.008 µM"
>>> experimental_result("C=C(c1ccc(C(=O)O)cc1)c1cc2c(cc1C)C(C)(C)CCC2(C)C")
"> 8 µM"
>>> experimental_result("OCCCNc1cc(-c2ccnc(Nc3cccc(Cl)c3)n2)ccn1")
"> 0.256 µM"
